- test: inhibitors of the yeast RAM network, pilot screen, dse1pr::URA3 reporter, 5-FOA selection (AID 869);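 note: 0% = DMSO wells with no growth and 100% = 10 µM 1-NA-PP1 with full growth; RAM network block rescues cells from 5-FOA so hits raise OD615 growth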
- experimental-setup: S. cerevisiae dse1pr::URA3 5-FOA growth, OD615, 2 d; at 10 µM; hits give high values; strain carries analog-sensitive mutant Cbk1 kinase
Rule: y for inhibition not less than 1%, n for anything less.

CCOC(=O)C1CCN(C(=O)C2CCN(S(=O)(=O)c3cccc4cccnc34)CC2)CC1
n

Consider now this further molecule.
Textbook exercise: given the entry COc1cc(NC(=O)c2cc3c(=O)n(C)c4ccccc4c3n2C)cc(OC)c1OC , state whether its inhibition is greater than or equal to 1%.
y

* * *

- test: OD615 S. cerevisiae growth inhibition, permissive medium, pilot counter-assay, permissive growth control for S. cerevisiae lifespan shortening project (AID 705)
- experimental-setup: OD615, 24 h, at 10 µM, hits give high values
measured-attribute: growth inhibition (%)
Express your answer in %, writing the number without its unit.

Would you please look over these solved cases?
COc1cc(/C=N/n2cnnc2)ccc1OCCOc1ccccc1
0.295
O=C(NCCCNC(=O)c1cccs1)c1cccs1
3.77
Clc1ccc(OCc2nnc(-c3ccccc3Br)o2)c(Cl)c1
-11.4
Cc1ccccc1N1C(=O)C(Cl)=C(N2CCN(c3ccccc3)CC2)C1=O
-5.42

// lookup growth inhibition for COc1ccc(Cl)cc1NC(=O)C1CCCO1 (configuration not stated)
0.985

Looking for the measured growth inhibition of CCCc1cc(C(=O)Nc2cc(Br)ccc2O)no1 , can you help?
-4.99

What growth inhibition value was documented for this molecule, COCCn1c(SCC(=O)Nc2cc(Cl)ccc2OC)nc2c(c1=O)SC(C)C2 (configuration not stated) ?
1.23
